FYI, the data here is from EPA's aquatic toxicity sets.

test system: Tetrahymena pyriformis; experiment: 48 h IGC50 (-log10 mol/L); higher = more toxic
Entries annotated with measured 48 h IGC50 (-log10 mol/L)
assay-endpoint: 48 h IGC50 (-log10 mol/L)

molecule=CCCCOC(=O)/C=C/c1ccccc1 assay_endpoint="48 h IGC50 (-log10 mol/L)" quantitative_readout=4.53
molecule=NC(N)=NC(N)=Nc1ccccc1 assay_endpoint="48 h IGC50 (-log10 mol/L)" quantitative_readout=2.61
molecule=Cc1ccccc1C#N assay_endpoint="48 h IGC50 (-log10 mol/L)" quantitative_readout=2.76
molecule="CCCCC(CC)C(=O)O (centres undefined)" assay_endpoint="48 h IGC50 (-log10 mol/L)" quantitative_readout=3.08
molecule=C#CC=CCO assay_endpoint="48 h IGC50 (-log10 mol/L)" quantitative_readout=2.44
molecule=CC(=O)OCCCCCCl assay_endpoint="48 h IGC50 (-log10 mol/L)" quantitative_readout=2.87
molecule=COc1cccc2ccccc12 assay_endpoint="48 h IGC50 (-log10 mol/L)" quantitative_readout=3.8
molecule=CCC(C)=O assay_endpoint="48 h IGC50 (-log10 mol/L)" quantitative_readout=1.25
molecule=N#CCc1ccc(O)cc1 assay_endpoint="48 h IGC50 (-log10 mol/L)" quantitative_readout=2.62

---

system: Pimephales promelas; test: 96 h LC50 (-log10 mol/L); higher = more toxic
Examples of compounds with documented 96 h LC50 (-log10 mol/L) follow.
assay-endpoint: 96 h LC50 (-log10 mol/L)

compound="CCOP(=S)(OCC)SC1OCCOC1SP(=S)(OCC)OCC (centres undefined)" assay_endpoint="96 h LC50 (-log10 mol/L)" quantitative_readout=4.66
compound=ClC=C(Cl)Cl assay_endpoint="96 h LC50 (-log10 mol/L)" quantitative_readout=3.47
compound=c1ccc2c(c1)[nH]c1ccccc12 assay_endpoint="96 h LC50 (-log10 mol/L)" quantitative_readout=5.25
compound=Cc1c([N+](=O)[O-])cc(N)cc1[N+](=O)[O-] assay_endpoint="96 h LC50 (-log10 mol/L)" quantitative_readout=4.46
compound=CC(N)=S assay_endpoint="96 h LC50 (-log10 mol/L)" quantitative_readout=2.44
compound=CCC(C)=O assay_endpoint="96 h LC50 (-log10 mol/L)" quantitative_readout=1.35
compound=COP(=S)(OC)Oc1ccc(SC)c(C)c1 assay_endpoint="96 h LC50 (-log10 mol/L)" quantitative_readout=4.94
compound=O=P(O)(O)CCCl assay_endpoint="96 h LC50 (-log10 mol/L)" quantitative_readout=3.05
compound=O=c1cccc(Cl)[nH]1 assay_endpoint="96 h LC50 (-log10 mol/L)" quantitative_readout=2.78
compound=C1=C[C@H]2CC[C@@H]1C2 assay_endpoint="96 h LC50 (-log10 mol/L)" quantitative_readout=3.97
compound=COc1cc(Cl)c(Cl)cc1O assay_endpoint="96 h LC50 (-log10 mol/L)" quantitative_readout=4.63
compound=Cc1ccc(C)o1 assay_endpoint="96 h LC50 (-log10 mol/L)" quantitative_readout=3.13
compound=CC(C)(C)CC(C)(C)N assay_endpoint="96 h LC50 (-log10 mol/L)" quantitative_readout=3.72
compound=OCc1ccoc1 assay_endpoint="96 h LC50 (-log10 mol/L)" quantitative_readout=2.29
compound=CCOP(=S)(OCC)SCSP(=S)(OCC)OCC assay_endpoint="96 h LC50 (-log10 mol/L)" quantitative_readout=5.73
compound=CCCCCCCC(C)=O assay_endpoint="96 h LC50 (-log10 mol/L)" quantitative_readout=3.97
compound=CN(C)C(=O)N[C@@H]1C[C@@H]2C[C@H]1[C@@H]1CCC[C@H]21 assay_endpoint="96 h LC50 (-log10 mol/L)" quantitative_readout=3.84
compound=CCO assay_endpoint="96 h LC50 (-log10 mol/L)" quantitative_readout=0.534
compound="C=CCC(O)C=C (centres undefined)" assay_endpoint="96 h LC50 (-log10 mol/L)" quantitative_readout=3.41
compound="CC1CNCC(C)O1 (centres undefined)" assay_endpoint="96 h LC50 (-log10 mol/L)" quantitative_readout=2.47
compound="COC(=O)C1C(C(=O)OC)C2(Cl)C(Cl)=C(Cl)C1(Cl)C2(Cl)Cl (centres undefined)" assay_endpoint="96 h LC50 (-log10 mol/L)" quantitative_readout=5.38
compound=Clc1ccc(C(c2ccc(Cl)cc2)C(Cl)Cl)cc1 assay_endpoint="96 h LC50 (-log10 mol/L)" quantitative_readout=4.86
compound=Cc1cc(Cl)ccc1OCCCC(=O)O assay_endpoint="96 h LC50 (-log10 mol/L)" quantitative_readout=4.26
compound=CCCCN(C=O)CCCC assay_endpoint="96 h LC50 (-log10 mol/L)" quantitative_readout=3.25
compound=Nc1c(Cl)c(Cl)nc(C(=O)O)c1Cl assay_endpoint="96 h LC50 (-log10 mol/L)" quantitative_readout=3.64
compound="CCC(C)N (centres undefined)" assay_endpoint="96 h LC50 (-log10 mol/L)" quantitative_readout=2.42
compound="c1ccc(C2CO2)cc1 (centres undefined)" assay_endpoint="96 h LC50 (-log10 mol/L)" quantitative_readout=4
compound=Cc1ccccc1O assay_endpoint="96 h LC50 (-log10 mol/L)" quantitative_readout=3.89
compound="CCC(C)C=O (centres undefined)" assay_endpoint="96 h LC50 (-log10 mol/L)" quantitative_readout=3.94
compound=COc1ccc(C(C)=O)c(OC)c1OC assay_endpoint="96 h LC50 (-log10 mol/L)" quantitative_readout=3.02
compound="CC(O)CO (centres undefined)" assay_endpoint="96 h LC50 (-log10 mol/L)" quantitative_readout=0.349
compound=C=CC=O assay_endpoint="96 h LC50 (-log10 mol/L)" quantitative_readout=6.32
compound=CCCCCOCCCCC assay_endpoint="96 h LC50 (-log10 mol/L)" quantitative_readout=4.71
compound=CC(=O)C(C)C assay_endpoint="96 h LC50 (-log10 mol/L)" quantitative_readout=2
